Each recorded value in this set is attributed to the supplement of paper PMC12669032.

system: Streptococcus salivarius; experiment: growth AUC relative to DMSO control (median of replicates) (fraction); higher = more growth (less inhibition), active = hit call of the paper; conditions: 20 µM; 24 h
Property Label: growth AUC
Answers are plain numbers.

These recorded examples may help you get a feel for the data.
[[record]]
compound = "O=C(Nc1ccccc1)N(Cc1ccc(Cl)cc1)C1CCCC1"
value_observed = 0.994

[[record]]
compound = "CC(C)Oc1cc(-n2nc(C(C)(C)C)oc2=O)c(Cl)cc1Cl"
value_observed = 0.971

[[record]]
compound = "O=c1oc2ccccc2c(O)c1C1CCCc2ccccc21 (centres undefined)"
value_observed = 1.01

[[record]]
compound = "Oc1cc(Cl)c(Cl)cc1Cl"
value_observed = 0.95


Quick one: give me growth AUC for each item below, same order please.
1. O=C(Nc1ccccc1-c1ccc(Cl)cc1)c1cccnc1Cl
2. O=C(O)c1ccc(=O)[nH]c1

[out]
[1.01, 0.981]

Quick one: give me growth AUC for each item below, same order please.
1. COc1cccc(C(=O)NN(C(=O)c2cc(C)cc(C)c2)C(C)(C)C)c1C
2. COC(=O)C(C)(Cl)Cl
3. C=CCOC(Cn1ccnc1)c1ccc(Cl)cc1Cl.O=S(=O)(O)O (centres undefined)
4. COP(=S)(OC)Oc1cc(Cl)c(Br)cc1Cl
5. CN(C)C1CSSSC1.O=C(O)C(=O)O
6. CCOP(=O)(OCC)ON1C(=O)c2cccc3cccc(c23)C1=O
7. CCC(C)c1cc([N+](=O)[O-])cc([N+](=O)[O-])c1OC(=O)C=C(C)C (centres undefined)

[out]
1: 0.966; 2: 0.979; 3: 0.953; 4: 0.995; 5: 0.994; 6: 1.03; 7: 0.872

Quick one: give me growth AUC for each item below, same order please.
1. CCOP(=S)(OCC)SCS(=O)(=O)CC
2. CCOP(=S)(OCC)SCCS(=O)CC (centres undefined)
3. CCOP(=O)(NC(C)C)Oc1ccc(S(C)(=O)=O)c(C)c1 (centres undefined)

[out]
1: 1.01; 2: 0.973; 3: 0.999

Quick one: give me growth AUC for each item below, same order please.
1. CCOCCN(C(=O)CCl)C(=C(C)C)c1ccccc1
2. CCCC(Cn1cncn1)c1ccc(Cl)cc1Cl (centres undefined)
3. COC(=O)NCc1cc(/C(C)=N\OCc2cccc(C)n2)ccc1Cl
4. CC1(C(=O)Nc2ccc(O)c(Cl)c2Cl)CCCCC1
5. CNC(=O)CSP(=S)(OC)OC
6. Clc1ccccc1Cl
7. Cc1cc(C)nc(NC(=O)NS(=O)(=O)c2ccccc2C(=O)OC2COC2)n1

[out]
1: 0.993; 2: 0.915; 3: 0.974; 4: 0.967; 5: 0.968; 6: 1.07; 7: 0.909

The reported value for CC(Oc1ccc(Oc2ncc(C(F)(F)F)cc2Cl)cc1)C(=O)O (centres undefined) in terms of growth AUC is 0.981

* * *

tested on: Eubacterium rectale; experiment: growth AUC relative to DMSO control (median of replicates) (fraction); higher = more growth (less inhibition), active = hit call of the paper; conditions: 20 µM; 24 h
Property Label: growth AUC
Numbers only.

[[record]]
molecule = "Cc1c(F)c(F)c(COC(=O)[C@@H]2[C@H](/C=C(\\Cl)C(F)(F)F)C2(C)C)c(F)c1F (mixture of isomers)"
value_observed = 1.01

[[record]]
molecule = "C=CCC1=C(C)C(OC(=O)C2C(C=C(C)C)C2(C)C)CC1=O (stereo not given)"
value_observed = 0.927

[[record]]
molecule = "CCCOP(=S)(OCCC)SCC(=O)N1CCCCC1C (stereo not given)"
value_observed = 1

[[record]]
molecule = "O=P(OC(CCl)CCl)(OC(CCl)CCl)OC(CCl)CCl"
value_observed = 1.07

[[record]]
molecule = "CCC(CC)Nc1c([N+](=O)[O-])cc(C)c(C)c1[N+](=O)[O-]"
value_observed = 0.979


Quick one: give me growth AUC for each item below, same order please.
1. CN(C)S(=O)(=O)N(SC(F)(Cl)Cl)c1ccccc1
2. O=C(NC(=O)c1c(F)cccc1F)Nc1ccc(Cl)c(Oc2ncc(C(F)(F)F)cc2Cl)c1
3. CNC(=O)/C=C(\C)OP(=O)(OC)OC
4. CCC(C)c1ccccc1OC(=O)NC (stereo not given)
5. O=C(NC(=O)c1c(F)cccc1F)Nc1ccc(CO/N=C(\c2ccc(Cl)cc2)C2CC2)cc1

[out]
1.09
0.951
0.999
0.964
0.952

* * *

system: Eubacterium rectale; assay: growth AUC relative to DMSO control (median of replicates) (fraction); higher = more growth (less inhibition), active = hit call of the paper; conditions: 20 µM; 24 h
Binary call on growth AUC: y from 0.9 upward, n beneath that.

Illustrative cases are given below, each with its answer.
[[record]]
compound = "C[N+]1(C)CCCCC1.[Cl-]"
assay_system = "Eubacterium rectale"
category = "y"

[[record]]
compound = "CCOC(=O)C(Cl)Cc1cc(-n2nc(C)n(C(F)F)c2=O)c(F)cc1Cl (stereo unspecified)"
assay_system = "Eubacterium rectale"
category = "n"

[[record]]
compound = "O=C(NC(=O)c1ccccc1Cl)Nc1ccc(OC(F)(F)F)cc1"
assay_system = "Eubacterium rectale"
category = "y"


[in] growth AUC >= 0.9 for Cc1ccccc1[N+](=O)[O-] ?
[out] y

* * *

test system: Parabacteroides distasonis; test: growth AUC relative to DMSO control (median of replicates) (fraction); higher = more growth (less inhibition), active = hit call of the paper; conditions: 20 µM; 24 h
Binary call on growth AUC: y from 1 upward, n beneath that.

Illustrative cases are given below, each with its answer.
[[record]]
compound = "O=C(Nc1ccc(F)cc1F)c1cccnc1Oc1cccc(C(F)(F)F)c1"
category = "n"

[[record]]
compound = "COP(=O)(OC)O/C(=C\\Cl)c1ccc(Cl)cc1Cl"
category = "n"

[[record]]
compound = "COP(=O)(NC(C)=O)SC (stereo not given)"
category = "y"

[[record]]
compound = "CCOP(=S)(OCC)Oc1cc(C)nc(N(CC)CC)n1"
category = "n"


Please turn your attention to the following entry.
[in] growth AUC >= 1 for CCCCCCCCCCCCC1=C(OC(C)=O)C(=O)c2ccccc2C1=O ?
[out] n

* * *

Give growth AUC for every item shown.
test system: Bacteroides clarus; test: growth AUC relative to DMSO control (median of replicates) (fraction); higher = more growth (less inhibition), active = hit call of the paper; conditions: 20 µM; 24 h
Numbers only.

These recorded examples may help you get a feel for the data.
[[record]]
compound = "CNC(=O)Oc1cccc2ccccc12"
assay_system = "Bacteroides clarus"
value_observed = 1.01

[[record]]
compound = "N#Cc1nn(-c2c(Cl)cc(C(F)(F)F)cc2Cl)c(N)c1S(=O)(=O)C(F)(F)F"
assay_system = "Bacteroides clarus"
value_observed = 0.966

[[record]]
compound = "CC1(C)CCC(Cc2ccc(Cl)cc2)C1(O)Cn1cncn1 (stereo not drawn)"
assay_system = "Bacteroides clarus"
value_observed = 0.925

[[record]]
compound = "Cl.NC1=NCCN1Cc1ccc(Cl)nc1"
assay_system = "Bacteroides clarus"
value_observed = 1.02

[[record]]
compound = "COP(=S)(OC)Oc1ccc([N+](=O)[O-])cc1"
assay_system = "Bacteroides clarus"
value_observed = 1.03

[[record]]
compound = "CC1=NNC(=O)N(/N=C/c2cccnc2)C1"
assay_system = "Bacteroides clarus"
value_observed = 0.98

[[record]]
compound = "CC(C)c1ccc(NC(=O)N(C)C)cc1"
assay_system = "Bacteroides clarus"
value_observed = 0.987

[[record]]
compound = "OC(Cn1cncn1)(c1ccc(F)cc1)c1ccccc1F (stereo not drawn)"
assay_system = "Bacteroides clarus"
value_observed = 0.971

[[record]]
compound = "CCC(C)(CC)c1cc(NC(=O)c2c(OC)cccc2OC)on1"
assay_system = "Bacteroides clarus"
value_observed = 0.949

[[record]]
compound = "COc1cc(OC)n2nc(S(=O)(=O)Nc3c(Cl)ccc(C)c3Cl)nc2n1"
assay_system = "Bacteroides clarus"
value_observed = 0.962


Quick one: give me growth AUC for each item below, same order please.
1. COP(N)(=S)Oc1ccccc1C(=O)OC(C)C (stereo not drawn)
2. CCCOP(=S)(OCCC)SCC(=O)N1CCCCC1C (stereo not drawn)
3. COc1cc(OC)nc(NC(=O)[N-]S(=O)(=O)c2ncccc2OCC(F)(F)F)n1.[Na+]
4. CNC(=O)O/N=C(\SC)C(=O)N(C)C

[out]
[0.981, 0.953, 0.982, 0.967]

Quick one: give me growth AUC for each item below, same order please.
1. CO/C=C(/C(=O)OC)c1ccccc1COc1cccc(C(F)(F)F)n1
2. CCCCN(CCCC)SN(C)C(=O)Oc1cccc2c1OC(C)(C)C2
3. Clc1ccccc1Cl

[out]
0.945
0.975
1.02

Quick one: give me growth AUC for each item below, same order please.
1. CC(C)=CC1C(C(=O)OCN2C(=O)C3=C(CCCC3)C2=O)C1(C)C (stereo not drawn)
2. CS(=O)(=O)c1cc(C(F)(F)F)ccc1C(=O)c1cnoc1C1CC1
3. Cc1ccc(NC(=O)N(C)C)cc1Cl
4. CC(=O)O.NC(N)=NCCCCCCCCNCCCCCCCCN=C(N)N
5. O=[N+]([O-])c1cc(C(F)(F)F)c(Cl)c([N+](=O)[O-])c1Nc1ncc(C(F)(F)F)cc1Cl
6. CCOP(=O)(OCC)OP(=O)(OCC)OCC

[out]
1. 0.924
2. 1.01
3. 0.989
4. 0.442
5. 0.322
6. 1
